- STUDY_TARGET: HLA-A*26:01
- TEST_SUMMARY: IEDB peptide-MHC binding, purified MHC/direct/fluorescence; filed as Kd, often an IC50 or EC50 that approximates it; bounds were set here for any values at or beyond the usual limits of such assays
- CONDITION_DETAILS: source organism: Orthomarburgvirus marburgense
pKd: −log10 of the molar value.
MEASURED_METRIC: pKd

Q: Name the reported pKd value associated with the sequence KNYPASLHK
Ans: ≤ 4.70

====

- STUDY_TARGET: HLA-A*69:01
- TEST_SUMMARY: IEDB peptide-MHC binding, purified MHC/competitive/fluorescence; filed as Kd, often an IC50 or EC50 that approximates it; bounds were set here for any values at or beyond the usual limits of such assays
- CONDITION_DETAILS: source organism: Xanthobacter autotrophicus Py2
pKd: −log10 of the molar value.
MEASURED_METRIC: pKd

Q: Which pKd value belongs to GQMYNMNTL ?
Ans: ≤ 4.70

====

- STUDY_TARGET: HLA-B*51:01
- TEST_SUMMARY: IEDB peptide-MHC binding, purified MHC/direct/fluorescence; filed as Kd, often an IC50 or EC50 that approximates it; bounds were set here for any values at or beyond the usual limits of such assays
- CONDITION_DETAILS: source organism: Brucella suis 1330
MEASURED_METRIC: Kd

Q: Please tell me: Kd of MHCDFAFWV , system HLA-B*51:01?
Ans: ≥ 20 µM

====

- STUDY_TARGET: HLA-B*39:01
- TEST_SUMMARY: IEDB peptide-MHC binding, purified MHC/direct/fluorescence; filed as Kd, often an IC50 or EC50 that approximates it; bounds were set here for any values at or beyond the usual limits of such assays
- CONDITION_DETAILS: source organism: Giardia lamblia ATCC 50803
MEASURED_METRIC: Kd

Q: # query: Kd of entry MTFPLHFRS
Ans: ≥ 20 µM

====

- STUDY_TARGET: HLA-A*01:01
- TEST_SUMMARY: IEDB peptide-MHC binding, purified MHC/direct/fluorescence; filed as Kd, often an IC50 or EC50 that approximates it; bounds were set here for any values at or beyond the usual limits of such assays
- CONDITION_DETAILS: source organism: Yellow fever virus 17D
MEASURED_METRIC: Kd

Q: # Kd lookup, item CRTAFKPVL
Ans: ≥ 20 µM

====

- STUDY_TARGET: HLA-A*26:01
- TEST_SUMMARY: IEDB peptide-MHC binding, purified MHC/competitive/fluorescence; filed as Kd, often an IC50 or EC50 that approximates it; bounds were set here for any values at or beyond the usual limits of such assays
- CONDITION_DETAILS: source organism: Escherichia coli str. K-12 substr. W3110
MEASURED_METRIC: Kd

Q: So what does the record say about Kd for IQFDWYPTS ?
Ans: ≥ 20 µM

====

- STUDY_TARGET: HLA-A*24:03
- TEST_SUMMARY: IEDB peptide-MHC binding, purified MHC/competitive/fluorescence; filed as Kd, often an IC50 or EC50 that approximates it; bounds were set here for any values at or beyond the usual limits of such assays
- CONDITION_DETAILS: source organism: Vibrio vulnificus CMCP6
MEASURED_METRIC: Kd

Q: Which measured Kd value corresponds to LMLHQQYNQ ?
Ans: ≥ 20 µM

====

- STUDY_TARGET: HLA-B*40:02
- TEST_SUMMARY: IEDB peptide-MHC binding, purified MHC/competitive/radioactivity; filed as Kd, often an IC50 or EC50 that approximates it; bounds were set here for any values at or beyond the usual limits of such assays
- CONDITION_DETAILS: source organism: Mammarenavirus lassaense
As shown below, each of these sequences has a reported Kd value.
Answer format: numeric, nM implied, no suffix.

SEQUENCE_ENTRY	STUDY_TARGET	Kd [nM]
KDPLITSGC	HLA-B*40:02	4500

Kindly review the next sequence as well.
Q: Name the recorded Kd for KEAYCQEFFL .
Ans: 15.3

====

- STUDY_TARGET: HLA-B*54:01
- TEST_SUMMARY: IEDB peptide-MHC binding, purified MHC/competitive/radioactivity; filed as Kd, often an IC50 or EC50 that approximates it; bounds were set here for any values at or beyond the usual limits of such assays
- CONDITION_DETAILS: source organism: Hepacivirus hominis
MEASURED_METRIC: Kd

Q: // fetch HLA-B*54:01 Kd for HSKKKCDDL
Ans: ≥ 78.1 µM

====

- STUDY_TARGET: HLA-B*27:05
- TEST_SUMMARY: IEDB peptide-MHC binding, purified MHC/direct/fluorescence; filed as Kd, often an IC50 or EC50 that approximates it; bounds were set here for any values at or beyond the usual limits of such assays
- CONDITION_DETAILS: source organism: Camelpox virus M-96
pKd: −log10 of the molar value.
Below, each of the sequences is paired with its reported pKd value.

SEQUENCE_ENTRY	pKd
MTRVTNNVY	≤ 4.70

Turning now to a further record.
Q: Report pKd for SHEQGDIAL please.
Ans: ≤ 4.70

====

- STUDY_TARGET: HLA-B*54:01
- TEST_SUMMARY: IEDB peptide-MHC binding, purified MHC/competitive/radioactivity; filed as Kd, often an IC50 or EC50 that approximates it; bounds were set here for any values at or beyond the usual limits of such assays
- CONDITION_DETAILS: source organism: Triticum aestivum
MEASURED_METRIC: pKd
Notebook: values listed as pKd are -log10 of the concentration (mol/L).

Q: # input sequence: LPAMCNVY ; wanted: its pKd
Ans: 5.55

====

- STUDY_TARGET: HLA-B*44:02
- TEST_SUMMARY: IEDB peptide-MHC binding, purified MHC/competitive/radioactivity; filed as Kd, often an IC50 or EC50 that approximates it; bounds were set here for any values at or beyond the usual limits of such assays
- CONDITION_DETAILS: source organism: SARS coronavirus Tor2
MEASURED_METRIC: Kd (nM)
Answer format: numeric, nM implied, no suffix.

Below: 6 sequences and their reported Kd.
SEQUENCE_ENTRY	MEASURED_METRIC	READING_UNIT	NUMERIC_VALUE
AESHMDADLA	Kd	nM	1330
LEGSVRVVT	Kd	nM	951
FELCDNPFF	Kd	nM	32.1
LEGSISYSEL	Kd	nM	5580
GEENFSSRMY	Kd	nM	58.1
FEYISDAFSL	Kd	nM	3210

Q: I'd like to know its Kd. The sequence in question is NEYRQYLDA
Ans: 12400

Q: Queued: SDRVVFVLWA
Ans: 654

Q: Here is the next sequence: GEVLSLDKL
Ans: 7880

Q: Continue with KEQLQLLMPL
Ans: 269

====

- STUDY_TARGET: HLA-C*03:03
- TEST_SUMMARY: IEDB peptide-MHC binding, purified MHC/direct/fluorescence; filed as Kd, often an IC50 or EC50 that approximates it; bounds were set here for any values at or beyond the usual limits of such assays
- CONDITION_DETAILS: source organism: Mycobacterium tuberculosis C
MEASURED_METRIC: pKd
Hey, just a heads up that pKd is the negative log base 10 of the concentration in molar.

Q: Name the reported pKd value associated with the sequence TMDPSVRVL
Ans: 7.52

====

- STUDY_TARGET: HLA-B*18:01
- TEST_SUMMARY: IEDB peptide-MHC binding, purified MHC/competitive/radioactivity; filed as Kd, often an IC50 or EC50 that approximates it; bounds were set here for any values at or beyond the usual limits of such assays
- CONDITION_DETAILS: source organism: Mammarenavirus machupoense
MEASURED_METRIC: Kd (µM)
Write the value in µM as a bare number.

SEQUENCE_ENTRY	READING_UNIT	Kd
PEIWLQLNTL	µM	19.7

Then there is this sequence:
Q: Data request, read-out Kd, for RECYVQRFYL
Ans: 0.518

====

- STUDY_TARGET: HLA-A*23:01
- TEST_SUMMARY: IEDB peptide-MHC binding, purified MHC/competitive/radioactivity; filed as Kd, often an IC50 or EC50 that approximates it; bounds were set here for any values at or beyond the usual limits of such assays
- CONDITION_DETAILS: source organism: Mammarenavirus lassaense
MEASURED_METRIC: Kd (nM)
Number in nM, nothing else.

Q: # query: Kd of entry YFESYVRPFV
Ans: 1890

====

- STUDY_TARGET: HLA-A*11:01
- TEST_SUMMARY: IEDB peptide-MHC binding, purified MHC/direct/fluorescence; filed as Kd, often an IC50 or EC50 that approximates it; bounds were set here for any values at or beyond the usual limits of such assays
- CONDITION_DETAILS: source organism: Reston ebolavirus - Reston
MEASURED_METRIC: Kd

Q: # lookup: Kd of FHRKKTDAL
Ans: ≥ 20 µM

Just for reference, the Immune Epitope Database (IEDB) is where these values come from.
